# Test system: SN12C renal
# method_summary: NCI tumour cell line growth inhibition, 48 h
Where a SMILES comes first, the peptide text is derived from it. The star is where a group is joined. ONb = O=[N+]([O-])c1ccc(CO*)cc1; Boc = CC(C)(C)OC(=O)*
Quick list: TGI per entry.

molecule	TGI
CC1C2CC(C(S(=O)(=O)N3CCOCC3)/C2=N\O)C1(C)C (centres undefined)	> 100 µM
Cn1c2ccccc2c2c(=O)[nH]c(=O)[nH]c21	> 100 µM
COc1ccc2oc(OC)c(CC=C(C)C)c(=O)c2c1C	> 100 µM
O=C(/C=C/c1ccc(O)c(O)c1)c1cc(O)cc(O)c1	26.2 µM
CC(C)C1=CCC2C(=C1)CCC1C(C)(C(=O)O)CCCC21C (centres undefined) (tested in a mixture with another compound)	> 100 µM

input: Need TGI, item O=C1CCC(=O)N1n1c(Cc2ccc(Cl)cc2)n[nH]c1=O
output: > 100 µM

input: Need TGI, item O=C1[C@@H]2[C@@H](c3ccccc3)[C@]2(Cl)C(=O)[C@H]2[C@H](c3ccccc3)[C@@]12Cl
output: > 100 µM

input: Need TGI, item Fc1ccc2nc3n(c2c1)C(c1c(Cl)cccc1Cl)SC3 (centres undefined)
output: > 100 µM

input: Need TGI, item COC1(OC)CC(CO)(CNc2cc(Cl)nc(N)n2)C1
output: > 100 µM

input: Need TGI, item C[C@]1(CO)CCC[C@@]2(C)C1CC[C@H]1CC3C[C@]12CC[C@]3(C)O (some centres undefined)
output: > 100 µM

input: Need TGI, item CC(C)CC(NC(=O)OC(C)(C)C)C(=O)NC(CCC(=O)OCc1ccc([N+](=O)[O-])cc1)C(=O)OCc1ccc([N+](=O)[O-])cc1 (stereo not drawn) (Boc-Leu-Glu(ONb)-ONb; configuration not given here)
output: > 100 µM

input: Need TGI, item COc1ccc2sc(-n3nc4ccccc4c3Nc3nc4ccc(OC)cc4s3)nc2c1
output: 18.5 µM

input: Need TGI, item Fc1ccccc1C1CC(c2ccc3ccccc3c2)=Nc2ccccc2S1 (centres undefined)
output: > 100 µM

input: Need TGI, item CN1C(=O)[C@@H]2[C@@H]3c4ccccc4N(S(=O)(=O)C(F)(F)F)[C@@H]3c3[nH]c4ccccc4c3[C@@H]2C1=O
output: > 100 µM

input: Need TGI, item CC(C)CCN=C(N)c1ccc(N2CCN(c3ccc(C(N)=NCCC(C)C)cc3)CC2)cc1
output: 42.7 µM

input: Need TGI, item CCOC(=O)C(O)(NC(=O)c1ccccc1F)C(F)(F)F (centres undefined)
output: > 100 µM

input: Need TGI, item O=C(Nc1ccccc1)NS(=O)(=O)c1ccc(-n2nc3c(c2-c2ccc(Cl)cc2)Cc2ccccc2-3)cc1
output: 66.6 µM

input: Need TGI, item COc1ccc(/C=C2\N=C(c3ccccc3)N(N=C3NC(=O)CC(=O)N3)C2=O)cc1
output: > 100 µM

input: Need TGI, item CN(C)c1ccc(Nc2cc(-c3cccc(OC(F)(F)F)c3)nc3ccc(N4CCCC4)cc23)cc1
output: 3.5 µM

---

# Tested on: KM12 colon
# method_summary: NCI tumour cell line growth inhibition, 48 h
quantity_measured: TGI (µM)
Write the number in µM without appending the unit.

Solved cases (2 shown):
structure_smiles_string	assayed_system	units_text	TGI
O=C(Cc1nc2ccccc2s1)Nc1cccc(C(F)(F)F)c1	KM12 colon	µM	30.5
COc1cc(Nc2ccnc(NCCCNc3ccnc4cc(Cl)ccc34)n2)cc(OC)c1	KM12 colon	µM	9.46

Field: next molecule
input: Need TGI, item COc1ccc(Nc2c3ccccc3nc3ccccc23)cc1
output: 15
